molecular target: ECF26_4464
observed-property: fold repression

binder: AS30_35 (protein) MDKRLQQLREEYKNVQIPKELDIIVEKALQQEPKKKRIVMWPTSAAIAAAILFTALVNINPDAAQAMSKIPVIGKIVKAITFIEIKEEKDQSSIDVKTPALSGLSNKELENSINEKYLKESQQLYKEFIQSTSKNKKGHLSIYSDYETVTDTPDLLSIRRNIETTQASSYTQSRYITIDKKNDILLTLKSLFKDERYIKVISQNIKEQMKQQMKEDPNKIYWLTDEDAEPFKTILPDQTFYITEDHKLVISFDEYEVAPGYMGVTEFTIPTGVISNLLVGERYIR
reading: 2.19
//
binder: AS02_915 (protein) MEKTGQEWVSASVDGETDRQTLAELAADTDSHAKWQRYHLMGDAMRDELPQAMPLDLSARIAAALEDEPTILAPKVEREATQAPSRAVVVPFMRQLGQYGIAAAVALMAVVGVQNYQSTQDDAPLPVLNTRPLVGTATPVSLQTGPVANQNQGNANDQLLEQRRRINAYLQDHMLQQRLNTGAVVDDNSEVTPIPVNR
reading: 3.42
//
binder: AS16_3622 (protein) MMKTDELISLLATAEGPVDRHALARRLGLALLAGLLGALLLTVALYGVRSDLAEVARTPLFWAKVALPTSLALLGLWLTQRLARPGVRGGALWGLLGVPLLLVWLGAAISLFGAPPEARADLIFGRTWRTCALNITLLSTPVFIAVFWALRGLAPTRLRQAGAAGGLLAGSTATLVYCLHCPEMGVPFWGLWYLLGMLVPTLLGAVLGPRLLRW
reading: 8.91
//
binder: AS04_1609 (protein) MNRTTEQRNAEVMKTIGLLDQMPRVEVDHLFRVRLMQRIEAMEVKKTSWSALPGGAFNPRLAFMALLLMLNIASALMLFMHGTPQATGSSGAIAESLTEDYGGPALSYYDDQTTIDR
reading: 6.23
//
binder: AS20_992 (protein) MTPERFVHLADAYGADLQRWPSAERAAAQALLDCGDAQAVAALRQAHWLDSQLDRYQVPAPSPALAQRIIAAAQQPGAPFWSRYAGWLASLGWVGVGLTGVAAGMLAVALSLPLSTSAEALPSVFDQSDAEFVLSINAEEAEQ
reading: 2.04
//
binder: AS37_2513 (protein) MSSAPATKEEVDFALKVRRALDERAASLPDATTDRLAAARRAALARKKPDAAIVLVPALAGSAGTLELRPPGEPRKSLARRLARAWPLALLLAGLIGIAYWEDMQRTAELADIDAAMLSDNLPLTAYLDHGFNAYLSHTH
reading: 7.32
//
binder: AS27_1331 (protein) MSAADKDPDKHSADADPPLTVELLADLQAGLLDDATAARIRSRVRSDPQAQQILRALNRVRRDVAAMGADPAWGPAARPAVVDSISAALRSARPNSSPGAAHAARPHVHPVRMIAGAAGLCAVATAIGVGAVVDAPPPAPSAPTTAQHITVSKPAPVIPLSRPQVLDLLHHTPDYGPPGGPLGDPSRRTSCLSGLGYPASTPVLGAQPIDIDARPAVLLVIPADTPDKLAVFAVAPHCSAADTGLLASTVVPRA
reading: 3.61
//
binder: AS27_4265 (protein) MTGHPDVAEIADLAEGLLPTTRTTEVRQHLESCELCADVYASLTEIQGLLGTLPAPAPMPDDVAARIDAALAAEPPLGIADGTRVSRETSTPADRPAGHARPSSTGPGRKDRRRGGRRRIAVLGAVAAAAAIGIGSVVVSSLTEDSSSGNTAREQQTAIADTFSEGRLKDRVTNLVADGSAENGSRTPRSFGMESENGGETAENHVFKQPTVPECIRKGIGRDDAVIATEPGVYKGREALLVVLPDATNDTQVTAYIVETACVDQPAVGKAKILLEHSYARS
reading: 5.53
//
binder: AS01_3473 (protein) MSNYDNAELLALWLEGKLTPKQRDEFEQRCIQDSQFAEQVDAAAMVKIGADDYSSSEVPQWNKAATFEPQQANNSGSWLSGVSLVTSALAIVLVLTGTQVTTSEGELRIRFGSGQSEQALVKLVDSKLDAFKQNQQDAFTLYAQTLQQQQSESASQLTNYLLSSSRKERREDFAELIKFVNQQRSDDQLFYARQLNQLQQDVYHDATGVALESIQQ
reading: 2.22
//
binder: AS31_34 (protein) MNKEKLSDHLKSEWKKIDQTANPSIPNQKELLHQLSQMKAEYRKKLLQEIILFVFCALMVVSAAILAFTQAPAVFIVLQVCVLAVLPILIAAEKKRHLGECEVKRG
reading: 3.63
//
binder: AS35_3582 (protein) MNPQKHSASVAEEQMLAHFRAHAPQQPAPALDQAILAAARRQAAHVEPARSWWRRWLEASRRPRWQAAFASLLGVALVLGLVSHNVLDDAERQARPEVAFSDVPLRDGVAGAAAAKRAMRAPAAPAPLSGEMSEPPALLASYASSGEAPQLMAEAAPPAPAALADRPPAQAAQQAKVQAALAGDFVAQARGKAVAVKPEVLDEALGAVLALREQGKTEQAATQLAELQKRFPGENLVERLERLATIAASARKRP
reading: 10.7
